MEASUREMENT PROTOCOL: chemical genetic growth profiling, strain panel (AID 1159580);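 also: tested at 20 µM; growth read once vehicle control cultures reached saturation at 30 °C; 1 = growth at the plate median or of vehicle wells; lower values mean less growth of the strain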
CONDITION CONTEXT: S. cerevisiae deletion strains, growth OD, locus YGL167C, strain pmr1, stronger effect = lower value
Among all 5,500 compounds or so, about 2,000 (36%) were called active. Inconclusive results (about 18%) are left out. Some of the results follow.
PARAMETER MEASURED: normalized growth

[[record]]
compound = "CC(=O)OCC(=O)[C@@]1(O)[C@H](C)CC2C3CCC4=CC(=O)C=C[C@]4(C)[C@@]3(F)[C@@H](O)C[C@@]21C (some centres undefined)"
measured_result = 0.954

[[record]]
compound = "CCN1CCN(C(=O)NC(C(=O)N[C@@H]2C(=O)N3[C@@H]2SC(C)(C)[C@@H]3C(=O)O)c2ccccc2)C(=O)C1=O (some centres undefined)"
measured_result = 1

[[record]]
compound = "Cc1c(C)c2c(c(C)c1O)CCC(C)(CCCC(C)CCCC(C)CCCC(C)C)O2 (centres undefined)"
measured_result = 0.968

[[record]]
compound = "CN(C)[C@@H]1C(=O)C(C(=O)NCN2CCCC2)=C(O)[C@@]2(O)C(=O)C3=C(O)c4c(O)cccc4[C@@](C)(O)[C@H]3C[C@@H]12"
measured_result = 1

[[record]]
compound = "CC(=O)N[C@@H](Cc1c[nH]c2ccccc12)C(N)=O"
measured_result = 1.01

[[record]]
compound = "CC(C)c1ccc2c(c1)CCC1C(C)(C(N)=O)CCCC21C (centres undefined)"
measured_result = 0.945

[[record]]
compound = "CCOC(=O)[C@H](CCc1ccccc1)N[C@@H](C)C(=O)N1CCC[C@H]1C(=O)O"
measured_result = 0.99

[[record]]
compound = "CN(C)[C@@H]1C(=O)C(C(N)=O)=C(O)[C@@]2(O)C(=O)C3=C(O)c4c(O)ccc(Cl)c4[C@@](C)(O)[C@H]3C[C@@H]12"
measured_result = 0.959

[[record]]
compound = "O=C(O)C1=CCCNC1"
measured_result = 0.99

